- Test summary: Mouse PK study with Compound 24
- Measurement setup: in vivo, PO 10 mg/kg Compound 24
Structures can show the parent of a compound that is named as a salt.
Test readout: MRT inf (h)
Write the number in h without appending the unit.

Quick note, MRT inf for CCC(C)C(N)C(=O)OCON=C1c2ccc(S(=O)(=O)N3C[C@H](C)C[C@H](C)C3)cc2C(=NO)c2cc(S(=O)(=O)N3C[C@H](C)C[C@H](C)C3)ccc21 (stereo partly shown) [Compound 24, dihydrochloride] landed at 1.36

* * *

- Test summary: Pharmacokinetics of Compound 10 (prodrug) and estimation of Compound 1 (parent) following oral and intravenous administration
- Format: in vivo, Male Sprague Dawley Rats
- Measurement setup: male, Sprague Dawley; rat plasma, IV 1.28 mg/kg sodium salt of compound 10; read-out: MRT0-last
Let's look at some compounds and their measured MRT last.
Record the value in h, omitting the unit from your answer.

Entry "C[C@@H]1C[C@H](C)CN(S(=O)(=O)c2ccc3c(c2)C(=NO)c2cc(S(=O)(=O)N4C[C@H](C)C[C@H](C)C4)ccc2C3=NOCOP(=O)(O)O)C1" — recorded MRT last = 0.15

So for C[C@@H]1C[C@H](C)CN(S(=O)(=O)c2ccc3c(c2)C(=NO)c2cc(S(=O)(=O)N4C[C@H](C)C[C@H](C)C4)ccc2C3=NO)C1 [Compound 1, reference compound] , the logged MRT last turned out to be 3.56

* * *

- Test summary: Solubility assay in buffer (pH 1 and pH 6), LC-MS/MS
- Format: physicochemical
- Measurement setup: aqueous buffer pH 6, aqueous buffer, kinetic from dmso stock, pH 6, room temperature
Counter-ions that a name gives are not always drawn.
Entries annotated with measured solubility at 2 h

Example entries and their recorded answers appear below.
Compound	Result
CCC(C)C(N)C(=O)OCON=C1c2ccc(S(=O)(=O)N3C[C@H](C)C[C@H](C)C3)cc2C(=NO)c2cc(S(=O)(=O)N3C[C@H](C)C[C@H](C)C3)ccc21 (stereo partly shown) [Compound 24, dihydrochloride]	< 0.78 µM
C[C@@H]1C[C@H](C)CN(S(=O)(=O)c2ccc3c(c2)C(=NO)c2cc(S(=O)(=O)N4C[C@H](C)C[C@H](C)C4)ccc2C3=NOCOP(=O)(O)O)C1 [Compound 10]	< 0.78 µM
C[C@@H]1C[C@H](C)CN(S(=O)(=O)c2ccc3c(c2)C(=NO)c2cc(S(=O)(=O)N4C[C@H](C)C[C@H](C)C4)ccc2C3=NOP(=O)(O)O)C1 [Compound 4]	> 100 µM

Consider now this further compound.
// solubility at 2 h lookup, compound = CCC(C)C(N)C(=O)OCON=C1c2cc(S(=O)(=O)N3C[C@H](C)C[C@H](C)C3)ccc2C(=NO)c2ccc(S(=O)(=O)N3C[C@H](C)C[C@H](C)C3)cc21 (stereo partly shown) [Compound 38] , result: < 0.78 µM

* * *

- Test summary: Mouse PK study with Compound 24
- Measurement setup: in vivo, IV 1 mg/kg Compound 24, C0 back extrapolated concentration at time zero
- Source text: Mouse PK Study with Compound 24 Summary of Pharmacokinetic Parameters of Compound 24 and Tegavivint: […]
Where a name gives a salt, the structure may show the parent alone.
Test readout: Cmax (ng/mL)
Unit ng/mL implied. Number only.

Record CCC(C)C(N)C(=O)OCON=C1c2ccc(S(=O)(=O)N3C[C@H](C)C[C@H](C)C3)cc2C(=NO)c2cc(S(=O)(=O)N3C[C@H](C)C[C@H](C)C3)ccc21 (stereo partly shown) [Compound 24, dihydrochloride] . Reported Cmax: 2370

* * *

- Test summary: Mouse PK study with Compound 24
- Measurement setup: in vivo, PO 10 mg/kg Compound 24, read-out: T½ (converted)
Where a name gives a salt, the structure may show the parent alone.
Test readout: half-life (min)
Output spec: scalar in min, unitless text.

The compound listed as CCC(C)C(N)C(=O)OCON=C1c2ccc(S(=O)(=O)N3C[C@H](C)C[C@H](C)C3)cc2C(=NO)c2cc(S(=O)(=O)N3C[C@H](C)C[C@H](C)C3)ccc21 (stereo partly shown) [Compound 24, dihydrochloride] has a reported half-life of 52.4

* * *

Item-by-item account of half-life
- Test summary: Pharmacokinetics of Compound 10 (prodrug) and estimation of Compound 1 (parent) following oral and intravenous administration
- Type: in vivo, Male Sprague Dawley Rats
- Measurement setup: male, Sprague Dawley; rat plasma, IV 1.28 mg/kg sodium salt of compound 10
- Excerpt: Pharmacokinetics of Compound 10 (Prodrug) and Estimation of Compound 1 (Parent) Following Oral and Intravenous Administration in Male Sprague Dawley Rats
Write down the numeric answer in h and omit the unit.

Compound	Unit name	half-life
C[C@@H]1C[C@H](C)CN(S(=O)(=O)c2ccc3c(c2)C(=NO)c2cc(S(=O)(=O)N4C[C@H](C)C[C@H](C)C4)ccc2C3=NO)C1 [Compound 1, reference compound]	h	4

Now, please, on to the next compound.
Form: compound = "C[C@@H]1C[C@H](C)CN(S(=O)(=O)c2ccc3c(c2)C(=NO)c2cc(S(=O)(=O)N4C[C@H](C)C[C@H](C)C4)ccc2C3=NOCOP(=O)(O)O)C1" ; half-life = 1.59

* * *

- Test summary: Stability assay in buffer (pH 1 and pH 6), LC-MS/MS
- Format: physicochemical
- Measurement setup: pH 6, 37° C.
Counter-ions that a name gives are not always drawn.
This listing pairs compounds with measured % Compound remaining at 120 min.
Response body: numeric value in %, unit text excluded.

Compound	Test readout	Unit name	Readout number
CCC(C)C(N)C(=O)OCON=C1c2ccc(S(=O)(=O)N3C[C@H](C)C[C@H](C)C3)cc2C(=NO)c2cc(S(=O)(=O)N3C[C@H](C)C[C@H](C)C3)ccc21 (stereo partly shown) [Compound 24, dihydrochloride]	% Compound remaining at 120 min	%	93
CC(C)[C@H](N)C(=O)OCON=C1c2cc(S(=O)(=O)N3C[C@H](C)C[C@H](C)C3)ccc2C(=NO)c2ccc(S(=O)(=O)N3C[C@H](C)C[C@H](C)C3)cc21.Cl [Compound 43]	% Compound remaining at 120 min	%	128
CC(C)C[C@H](N)C(=O)OCON=C1c2ccc(S(=O)(=O)N3C[C@H](C)C[C@H](C)C3)cc2C(=NO)c2cc(S(=O)(=O)N3C[C@H](C)C[C@H](C)C3)ccc21.Cl [Compound 41]	% Compound remaining at 120 min	%	76
C[C@@H]1C[C@H](C)CN(S(=O)(=O)c2ccc3c(c2)C(=NO)c2cc(S(=O)(=O)N4C[C@H](C)C[C@H](C)C4)ccc2C3=NOCOP(=O)(O)O)C1 [Compound 10]	% Compound remaining at 120 min	%	79
CCC(C)C(N)C(=O)OCON=C1c2cc(S(=O)(=O)N3C[C@H](C)C[C@H](C)C3)ccc2C(=NO)c2ccc(S(=O)(=O)N3C[C@H](C)C[C@H](C)C3)cc21 (stereo partly shown) [Compound 38]	% Compound remaining at 120 min	%	96

GET /value?item= C[C@@H]1C[C@H](C)CN(S(=O)(=O)c2ccc3c(c2)C(=NO)c2cc(S(=O)(=O)N4C[C@H](C)C[C@H](C)C4)ccc2C3=NOP(=O)(O)O)C1 [Compound 4] &field=% Compound remaining at 120 min returns 101

// field: % Compound remaining at 120 min; key: C[C@@H]1C[C@H](C)CN(S(=O)(=O)c2ccc3c(c2)C(=NOCOC(=O)C(N)C(C)(C)C)c2cc(S(=O)(=O)N4C[C@H](C)C[C@H](C)C4)ccc2C3=NO)C1 (stereo partly shown) [Compound 46] ; value = 97

* * *

- Test summary: Pharmacokinetics of Compound 10 (prodrug) and estimation of Compound 1 (parent) following oral and intravenous administration
- Assay type: in vivo, Male Sprague Dawley Rats
- Measurement setup: male, Sprague Dawley; rat plasma, IV 1.28 mg/kg sodium salt of compound 10
Test readout: AUC(0-inf) (ng·h/mL)
Give a bare numeral; the unit ng·h/mL is implied.

Compound	Unit name	AUC(0-inf)
C[C@@H]1C[C@H](C)CN(S(=O)(=O)c2ccc3c(c2)C(=NO)c2cc(S(=O)(=O)N4C[C@H](C)C[C@H](C)C4)ccc2C3=NO)C1 [Compound 1, reference compound]	ng·h/mL	446

Proceeding to the next compound to report its AUC(0-inf).
Lab note: "C[C@@H]1C[C@H](C)CN(S(=O)(=O)c2ccc3c(c2)C(=NO)c2cc(S(=O)(=O)N4C[C@H](C)C[C@H](C)C4)ccc2C3=NOCOP(=O)(O)O)C1" gave AUC(0-inf) of 885

* * *

The entries below are paired with their reported Vd.
- Test summary: Pharmacokinetics of Compound 10 (prodrug) and estimation of Compound 1 (parent) following oral and intravenous administration
- Assay type: in vivo, Male Sprague Dawley Rats
- Measurement setup: male, Sprague Dawley, rat, plasma, iv, 1.28 mg/kg, IV 1.28 mg/kg sodium salt of compound 10, read-out: Vd
// units = L/kg; emit number, no label

Compound	Unit name	Readout number
C[C@@H]1C[C@H](C)CN(S(=O)(=O)c2ccc3c(c2)C(=NO)c2cc(S(=O)(=O)N4C[C@H](C)C[C@H](C)C4)ccc2C3=NOCOP(=O)(O)O)C1	L/kg	3.31

The record that follows has no Vd shown yet.
Reported Vd for C[C@@H]1C[C@H](C)CN(S(=O)(=O)c2ccc3c(c2)C(=NO)c2cc(S(=O)(=O)N4C[C@H](C)C[C@H](C)C4)ccc2C3=NO)C1 [Compound 1, reference compound] was 16.9
